# tgt: T1, human OT7T175 (metastin receptor) (human, UniProt Q969F8 1-398)
# T1 construct: expressed on CHO cells (hOT7T175-expressed CHO cells; hOT7T175/CHO); also called hOT7T175; h0T7T175
# assay procedure: FMAT competition with Cy-5-labeled metastin (40-54), hOT7T175-expressed CHO cells
Numbered stars: 1 amine (or outer) side, 2 acyl side, 3 side chain; on linkers, the order of the positions; unused ones are H or OH. Square brackets hold non-standard residues; d marks the D form. Ends that are not written are not given here. * marks the point of attachment. Tyr(Me) = O-methyltyrosine, COc1ccc(C[C@H](N[*:1])C(=O)[*:2])cc1; Propanoyl(3-indol-3-yl) = O=C(CCc1c[nH]c2ccccc12)*; Phe(F5) = N[C@@H](Cc1c(F)c(F)c(F)c(F)c1F)C(=O)O; Arg(Me) = CNC(=N)NCCC[C@H](N)C(=O)O; d3Pal = N[C@H](Cc1cccnc1)C(=O)O; azaGly = NNC(=O)O
Attribute: IC50
All answers are understood in nM, so give the number only.

Examples from the recorded data:
Please supply the value of reported IC50 for the item ANWNSFGLRF-NH2 [Compound No. 72: [Ala1]MS10]
540

Determine from records and report IC50 for [dY]NINSFGL[Arg(Me)]F-NH2 (N-terminus assumed; SMILES CC[C@H](C)[C@H](NC(=O)[C@H](CC(N)=O)NC(=O)[C@H](N)Cc1ccc(O)cc1)C(=O)N[C@@H](CC(N)=O)C(=O)N[C@@H](CO)C(=O)N[C@@H](Cc1ccccc1)C(=O)NCC(=O)N[C@@H](CC(C)C)C(=O)N[C@@H](CCCNC(=N)NC)C(=O)N[C@@H](Cc1ccccc1)C(N)=O) [Compound No. 206: [D-Tyr1,Ile3,Arg(Me)9]MS10]
85

Please report IC50 for the following binder: YNWNSFGLR[Tyr(Me)]-NH2 [Compound No. 18: [Tyr(Me)10]MS10]
7.7

Specify measured IC50 for YNWNSFGLR[Phe(F5)]-NH2 [Compound No. 111: [Phe(F5)10]MS10] .
140

Note down IC50 recorded for YNWNSFGLKF-NH2 [Compound No. 44: [Lys9]MS10]
190

Next:
// Input: {Propanoyl(3-indol-3-yl)}-NSF[azaGly]L[Arg(Me)]F-NH2 [Compound No. 260: des(1-3)-3-(3-Indolyl)propionyl-[AzaGly7,Arg(Me)9]MS10] . Output its IC50 only.
320

Return IC50 for the following binder: [dY][dN]WNTF[azaGly]L[Arg(Me)]F-NH2 [Compound No. 298: [D-Tyr1,D-Asn2,Thr5,AzaGly7,Arg(Me)9]MS10]
0.25

Give IC50 for the following binder: [d3Pal]NWNSF[azaGly]L[Arg(Me)]F-NH2 (N-terminus assumed; SMILES CNC(=N)NCCC[C@H](NC(=O)[C@H](CC(C)C)NC(=O)NNC(=O)[C@H](Cc1ccccc1)NC(=O)[C@H](CO)NC(=O)[C@H](CC(N)=O)NC(=O)[C@H](Cc1c[nH]c2ccccc12)NC(=O)[C@H](CC(N)=O)NC(=O)[C@H](N)Cc1cccnc1)C(=O)N[C@@H](Cc1ccccc1)C(N)=O) [Compound No. 258: [D-Pya(3)1,AzaGly7,Arg(Me)9]MS10]
90

Identify the reported IC50 for the following entry. [dY]NTNSF[azaGly]L[Arg(Me)]F-NH2 [Compound No. 221: [D-Tyr1,Thr3,AzaGly7,Arg(Me)9]MS10]
95

Specify reported IC50 for the binder shown: [dY][dN]FNSF[azaGly]L[Arg(Me)]F-NH2 [Compound No. 257: [D-Tyr1,D-Asn2,Phe3,AzaGly7,Arg(Me)9]MS10]
40

// provenance: patent US20060241051A1
